Measured values drawn from the supplement of paper PMC11061612 for this set.

Test system: KS-1 (Glioblastoma);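 further: after 72 h of two-drug dosing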
assay.notes: Bliss excess, mean over the matrix (fraction); higher = more synergy

molecule | Bliss excess
Cc1nc(-c2cn3c(n2)-c2ccc(-c4cnn(C(C)(C)C(N)=O)c4)cc2OCC3)n(C(C)C)n1 [Taselisib] + O=C(Nc1ccc2[nH]nc(-c3ccncc3)c2c1)[C@@H]1CCN(CC(=O)N2CCN(c3ccc(-c4ncccn4)cc3)CC2)C1 [SCH772984] (first compound max 10 µM, 7x7, partner max 5 µM) | 0.0097
NC1(C(=O)N[C@@H](CCO)c2ccc(Cl)cc2)CCN(c2ncnc3[nH]ccc23)CC1 [Capivasertib] + COc1nnc2ccc(N3CCC(c4ccc(OCCN5CCN(C)C(=O)[C@H]5C)cc4)CC3)nn12 [AZD5153] (first compound max 10 µM, 7x7, partner max 1 µM) | -0.0211
